Assay: Cytotoxicity against human 9KB cells assessed as cell survival at 100 ug/ml relative to control
Format: functional
Conditions: read-out: Activity
What viability at 100 µg/mL was measured for each of the following?
Units required after the number.

Reported viability at 100 µg/mL for O=C(CCc1ccc(O)cc1)c1ccccc1O was 0%

// sample COc1cc(CCC(=O)c2ccccc2)ccc1O , its viability at 100 µg/mL was 0%

COc1cc(O)c(C(C)=O)c(O[C@@H]2O[C@H](CO)[C@@H](O)[C@H](O)[C@H]2O)c1 [PLEOSIDE] has a reported viability at 100 µg/mL of 39%

compound O=C(CCc1ccc(O)cc1)c1ccccc1 , viability at 100 µg/mL observed: 0%

Data point: COc1cc(O)c(C(C)=O)c(O)c1 ; viability at 100 µg/mL = 0%

Per the record, O=C(CCc1ccc(O)c(O)c1)c1ccc(O)c(O)c1O has viability at 100 µg/mL of 0%

According to the records, this compound O=C(CCc1ccccc1)c1c(O)cc(O)cc1O displays viability at 100 µg/mL of 0%

Measured viability at 100 µg/mL, COc1cc(C(=O)CCc2ccc(O)cc2)ccc1O : 0%

Note to self: viability at 100 µg/mL recorded for COc1cc(CCC(=O)c2ccccc2O)ccc1O was 0%

The measured viability at 100 µg/mL associated with COc1cc(O)c(C(=O)CCc2ccc(O)cc2)c(O[C@@H]2O[C@H](CO)[C@@H](O)[C@H](O)[C@H]2O)c1 [ASEBOTIN] reads 100%

Summary for this compound, COc1cc(O)c(C(=O)CCc2ccc(O)cc2)c(O)c1 [ASEBOGENIN] : viability at 100 µg/mL is 0%

###

Experiment: Toxicity in ip dosed mouse
Assay type: organism-based
Settings: in vivo
attribute-measured: LD50 (mg/kg)
Provide the reading as a plain figure in mg/kg.

compound CC(=O)O[C@@H]1[C@H]2CC[C@H]3[C@@](C)(O)[C@@H]4C[C@H](O)C(C)(C)[C@@]4(O)[C@H](O)C[C@@]13C[C@@]2(C)O , LD50 observed: 1.3

###

Experiment: Cytotoxicity against human 9KB cells assessed as cell survival at 100 ug/ml relative to control
Format: functional
Settings: read-out: Activity
Exercise: for every item that follows, state its recorded viability at 100 µg/mL.
Please state the figure in %; there is no need to write the unit.

Documented viability at 100 µg/mL of O=C(CCc1ccc(O)cc1)c1ccc(O)cc1 : 0

The recorded viability at 100 µg/mL for entry COc1ccc(CCC(=O)c2c(O)cc(O)cc2O)cc1O equals 46

The recorded viability at 100 µg/mL for O=C(CCc1ccc(O)c(O)c1)c1ccccc1O is 0

So for COc1ccc(C(=O)CCc2ccc(O)cc2)c(O)c1 , the logged viability at 100 µg/mL turned out to be 0

Value of viability at 100 µg/mL reported for the compound O=C(CCc1ccc(O)cc1)c1ccc(O)c(O)c1O is 0

Just so you know, measured viability at 100 µg/mL for CC(=O)c1ccc(O)c(O)c1O [GALLACETOPHENONE] came out at 0

# viability at 100 µg/mL (compound: O=C(CCc1ccc(O)cc1)c1cccc(O)c1 ) is 0

According to the records, this compound O=C(CCc1ccc(O)cc1)c1c(O)cc(O)cc1O [PHLORETIN] displays viability at 100 µg/mL of 0

Per the record, COc1cc(O)c(C(C)=O)c(OC)c1 [XANTHOXYLIN] has viability at 100 µg/mL of 0

Entry under test: O=C(CCc1ccc(O)cc1)c1c(O)cccc1O . Its viability at 100 µg/mL was 20

Record CC(=O)c1c(O)cc(O)cc1O [2,4,6-TRIHYDROXYACETOPHENONE] , field viability at 100 µg/mL: 29

Kindly note the recorded viability at 100 µg/mL for COc1cc(O)c(C(=O)CCc2ccccc2)c(OC)c1 , which is 0
